Observed pIC50, system Neuropeptide Y receptor type 5 (Homo sapiens).
Entry type: numeric. Quantity: pIC50, the -log10 of concentration in molar units.

In [3]: df
Out[3]:
                                   compound  endpoint_value
0  COc1ccc2c(c1)C(O)(CNCC1CCN(C(=O)Cn3c(=O)sc4ccc(Cl)cc43)CC1)CCC2 (stereo not given)            7.55
1  COc1ccc2c(c1)CC(NCC1CCN(C(=O)CNS(=O)(=O)c3cccc4ccccc34)CC1)CCC2 (stereo not given)            8.43
2  O=C(Nc1nccs1)C1CCN(C(=O)Cn2c(=O)sc3ccc(Cl)cc32)CC1 [FR-73966]            7.28

The compound COc1ccc2c(c1)CC(NCC1CCN(C(=O)Cn3c(=O)sc4ccc(Cl)cc43)CC1)CCC2 (stereo not given) , tested on Neuropeptide Y receptor type 5 (Homo sapiens), showed pIC50 of 9.15

The compound COc1ccc2c(c1)C(O)(CNC(=O)C1CCN(C(=O)Cn3c(=O)sc4ccc(Cl)cc43)CC1)CCC2 (stereo not given) , tested on Neuropeptide Y receptor type 5 (Homo sapiens), showed pIC50 of 9.00
